tested on: DMS 114 small cell lung; assay: NCI tumour cell line growth inhibition, 48 h
Overview of reported TGI across a group of compounds:
Outcome Measure: TGI

Compound: C=C=C(C(=O)OC)S(=O)c1ccccc1[N+](=O)[O-] (stereo not given)
Result: > 100 µM

Compound: CN(C)c1ccc(/C=C/C(=O)[O-])cc1.CN(C)c1ccc(/C=C/C(=O)[O-])cc1.[Cu+2]
Result: > 100 µM

Compound: COC(=O)C(=O)C(C(=O)C(=O)Nc1cccc(C(C)=O)c1)c1nc2ccc([N+](=O)[O-])cc2[nH]c1=O (stereo not given)
Result: > 100 µM

Compound: NC1=NC2=c3ccccc3=C(c3cnccn3)C2(c2cnccn2)c2ccccc21 (stereo not given)
Result: > 100 µM

Compound: NC(=S)N/N=C/c1nccc2ccccc12
Result: 2.51 µM

---

system: K-562 leukemia; assay: NCI tumour cell line growth inhibition, 48 h

Molecule: CC(C)(C)n1c(=O)n2n(c1=O)Cc1cccc3cccc(c13)C2
TGI: 35.4 µM
--
Molecule: CCN(CC)CC(C)(C)C(=O)/C=C/c1cccc(/C=C/C(=O)C(C)(C)CN(CC)CC)c1
TGI: > 100 µM
--
Molecule: O=C(C=C1SCCS1)/C=C\c1ccc(Cl)cc1
TGI: > 100 µM
--
Molecule: CC[C@H](NC(=O)[C@H]1CCCCN1C)C(=O)N(C)[C@H](C[C@@H](OC(C)=O)c1nc(C(=O)N[C@@H](Cc2ccccc2)C[C@H](C)C(=O)O)cs1)C(C)C
TGI: > 14.3 µM
--
Molecule: COc1ccc(OC)c(CSc2ccc(OC)c(OC)c2)c1
TGI: > 100 µM
--
Molecule: O=C1CC(c2c(-c3ccccc3)[nH]c3ccccc23)C(=O)N1 (centres undefined)
TGI: > 100 µM
--
Molecule: COC(=O)[C@@H](C)C[C@H](Cc1cn(C)c2ccccc12)NC(=O)c1csc([C@@H](C[C@H](C(C)C)N(C)C(=O)[C@@H](NC(=O)[C@H]2CCCCN2C)C(C)C)OC(C)=O)n1
TGI: > 16.7 µM
--
Molecule: Nc1c(C(=O)c2ccc(-c3cccnc3)cc2)cnn1-c1ccc(F)cc1
TGI: > 25 µM
--
Molecule: CC(=O)N1N=C(c2ccc3ccccc3c2O)CC1c1cccs1 (centres undefined)
TGI: 22.5 µM

---

tested on: NCI-H226 lung; assay: NCI tumour cell line growth inhibition, 48 h; in the data active = GI50 below about 0.43 µM; inactive = the rest
Outcomes: TRUE for active, FALSE for inactive

Compound: N#Cc1c(NC(=O)NCc2ccccc2)sc2c1CCCC2
Group Label: FALSE
//
Compound: COC1=CC(c2ccc[nH]2)=N/C1=C\c1[nH]c(C)c(CC(=O)OCc2ccccc2)c1CCC(=O)OCc1ccccc1
Group Label: TRUE
//
Compound: Cc1cc(Nc2ccc(OCc3ccccc3)cc2)nc2cc(O)ccc12
Group Label: FALSE
//
Compound: CCOC(=O)[C@@H](C)C[C@H](Cc1ccccc1)NC(=O)c1nc([C@@H](C[C@H](C(C)C)N(C)C(=O)[C@@H](NC(=O)[C@H]2CCCCN2C)C(C)C)OC(C)=O)sc1CCOCc1ccccc1
Group Label: TRUE
//
Compound: COC1C(CO)OC(n2c3ccccc3c3c4c(c5c6ccccc6[nH]c5c32)C(=O)NC4=O)C(O)C1O (configuration not stated)
Group Label: TRUE
//
Compound: O=C(COc1ccc(/C=C2\COc3ccccc3C2=O)cc1)Nc1nccs1
Group Label: FALSE
//
Compound: Cn1cc(C2=C(c3ccccc3[N+](=O)[O-])C(=O)NC2=O)c2ccccc21
Group Label: FALSE
//
Compound: Nc1c(C(=O)c2ccc(-c3cccnc3)cc2)cnn1-c1ccc(F)cc1
Group Label: FALSE
//
Compound: Cc1cc(=O)[nH]c(N/N=C/c2cc(Br)ccc2O)n1
Group Label: FALSE
//
Compound: CCC(CC)c1nc(Nc2ccc(C(=O)OC)cc2)c2ccccc2n1
Group Label: FALSE
//
Compound: COC(=O)[C@@H](C)C[C@H](Cc1cn(C)c2ccccc12)NC(=O)c1csc([C@@H](C[C@H](C(C)C)N(C)C(=O)[C@@H](NC(=O)[C@H]2CCCCN2C)C(C)C)OC(C)=O)n1
Group Label: TRUE
//
Compound: CC[C@@H]1[C@@H](C)O[C@@](O)([C@@H](C)[C@H](O)[C@H](C)[C@H]2OC(=O)/C=C/C=C/[C@H](C)[C@@H]([C@@H](C)[C@@H](O)[C@H](C)[C@@]3(O)C[C@@H](O[C@H]4C[C@@H](O)[C@H](O)C(C)O4)[C@H](CC)[C@@H](C)O3)OC(=O)/C=C/C=C/[C@@H]2C)C[C@H]1O[C@@H]1C[C@@H](O)[C@H](O)C(C)O1 (some centres not stated)
Group Label: TRUE
//
Compound: NCCCNc1nc2ccccc2c2c(=O)c3cc(F)cc(F)c3sc12
Group Label: FALSE
//
Compound: C[C@]12CC[C@@H]3c4cc(OC(F)F)c(O)cc4CC[C@H]3[C@@H]1CC[C@@H]2OS(N)(=O)=O
Group Label: FALSE
//
Compound: COc1cc(/C=C2\C[C@H]3[C@@H]4CC=C5C[C@@H](O)CC[C@]5(C)[C@H]4CC[C@]3(C)[C@H]2O)ccc1OCCN1CCCC1
Group Label: FALSE
//
Compound: COc1ccc(C(=O)Nc2ncc(Cc3cccc(Cl)c3)s2)cc1OC
Group Label: FALSE
//
Compound: Cc1cc(Cl)cc2c(N=Nc3ccc(S(N)(=O)=O)cc3)c(O)[nH]c12
Group Label: FALSE

Origin of values: PubChem BioAssay (NCI)
